Biological target: PTPβ (Homo sapiens, UniProt P23467)
Experiment: pNPP hydrolysis enzyme assay, PTPβ
Assay type: biochemical
EXPERIMENTAL_READOUT: IC50

input: Which value of IC50 has been reported for COc1cc(CC(=O)NCC(NC(=O)C(CCCNC(=O)c2cccc(I)c2)NC(=O)C(Cc2ccc(C(F)(F)P(=O)(O)O)cc2)NC(=O)c2ccc(C)c(Br)c2)C(N)=O)ccc1O (stereo not shown) [Compound 7] in the records?
output: > 10000 nM

----------
Molecular target: TC-PTP (Homo sapiens (Human), UniProt P17706)
Sequence (P17706 whole entry, looked up, species assumed): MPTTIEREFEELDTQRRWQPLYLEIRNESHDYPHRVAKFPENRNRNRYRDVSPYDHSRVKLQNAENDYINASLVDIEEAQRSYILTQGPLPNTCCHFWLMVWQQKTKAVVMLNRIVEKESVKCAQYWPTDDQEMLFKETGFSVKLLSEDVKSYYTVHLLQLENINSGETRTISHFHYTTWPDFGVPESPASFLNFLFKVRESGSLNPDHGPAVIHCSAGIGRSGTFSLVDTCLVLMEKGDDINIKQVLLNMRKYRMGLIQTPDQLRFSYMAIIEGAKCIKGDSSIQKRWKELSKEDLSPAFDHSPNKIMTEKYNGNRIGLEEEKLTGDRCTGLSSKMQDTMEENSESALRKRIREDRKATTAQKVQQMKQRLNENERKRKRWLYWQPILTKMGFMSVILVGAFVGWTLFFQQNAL
Assay: pNPP hydrolysis enzyme assay, TC-PTP
Format: biochemical
Settings: pNPP substrate; read-out: IC50 for TC-PTP
EXPERIMENTAL_READOUT: IC50
Form field: result (number plus unit)

input: Requested field: IC50. Item: COc1cc(CC(=O)NCC(NC(=O)C(CCCNC(=O)c2cccc(I)c2)NC(=O)C(Cc2ccc(C(F)(F)P(=O)(O)O)cc2)NC(=O)c2ccc(C)c(Br)c2)C(N)=O)ccc1O (stereo not shown)
output: 830 nM

----------
pIC50 reference
Target: PTP-MEG2 (Homo sapiens (Human))
Assay: pNPP hydrolysis enzyme assay, PTP-MEG2
Format: biochemical
Conditions: pNPP substrate, pH 7.0, 25° C.; read-out: IC50 for PTP-MEG2
The scale used: pIC50 is minus the common logarithm of the concentration in molar units.

CC(=O)NC(Cc1ccc(C(F)(F)P(=O)(O)O)cc1)C(=O)NC(CCCNC(=O)c1cccc(I)c1)C(N)=O (centres unmarked) :: 6.05

input: Give the reported pIC50 for Cc1ccc(C(=O)NC(Cc2ccc(C(F)(F)P(=O)(O)O)cc2)C(=O)NC(CCCNC(=O)c2cccc(I)c2)C(N)=O)cc1Br (centres unmarked) (system: PTP-MEG2 (Homo sapiens (Human))).
output: 6.57

----------
Target: PTP-PEST (Homo sapiens (Human), UniProt Q05209)
Sequence (Q05209 whole entry, species assumed): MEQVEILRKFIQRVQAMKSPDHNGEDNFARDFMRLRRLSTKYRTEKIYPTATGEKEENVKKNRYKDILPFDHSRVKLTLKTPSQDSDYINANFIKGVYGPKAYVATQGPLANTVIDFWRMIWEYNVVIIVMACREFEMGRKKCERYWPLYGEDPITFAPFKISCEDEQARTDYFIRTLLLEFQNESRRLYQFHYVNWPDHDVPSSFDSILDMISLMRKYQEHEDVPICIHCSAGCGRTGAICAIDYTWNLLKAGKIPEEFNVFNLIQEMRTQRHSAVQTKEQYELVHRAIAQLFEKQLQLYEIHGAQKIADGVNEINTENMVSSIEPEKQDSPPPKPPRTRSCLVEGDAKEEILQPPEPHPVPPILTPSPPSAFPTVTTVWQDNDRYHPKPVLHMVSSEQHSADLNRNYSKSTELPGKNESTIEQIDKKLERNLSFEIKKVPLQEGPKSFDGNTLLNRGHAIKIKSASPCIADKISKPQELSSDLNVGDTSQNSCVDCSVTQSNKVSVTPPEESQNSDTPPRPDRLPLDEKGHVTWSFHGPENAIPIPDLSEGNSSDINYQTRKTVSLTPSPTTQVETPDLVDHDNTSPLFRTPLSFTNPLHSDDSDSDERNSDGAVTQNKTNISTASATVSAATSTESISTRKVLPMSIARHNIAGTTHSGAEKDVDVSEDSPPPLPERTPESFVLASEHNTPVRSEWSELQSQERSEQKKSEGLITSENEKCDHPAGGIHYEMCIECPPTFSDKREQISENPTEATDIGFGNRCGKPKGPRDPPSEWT
Assay: pNPP hydrolysis enzyme assay, PTP-PEST
Type: biochemical
Protocol: Enzyme kinetic assay. PTP activity was assayed using p-nitrophenyl phosphate (pNPP) as a substrate in 3,3-dimethylglutarate buffer (50 mM 3,3-dimethylglutarate, pH 7.0, 1 mM EDTA, 150 mM NaCl, 2 mM DTT, 0.1 mg/mL BSA) at 25° C. The assays were performed in 96-well plates. […] The reaction rate was measured using a SpectraMax Plus 384 Microplate Spectrophotometer (Molecular Devices). […]
EXPERIMENTAL_READOUT: IC50

input: // IC50 lookup, key: COc1cc(CC(=O)NCC(NC(=O)C(CCCNC(=O)c2cccc(I)c2)NC(=O)C(Cc2ccc(C(F)(F)P(=O)(O)O)cc2)NC(=O)c2ccc(C)c(Br)c2)C(N)=O)ccc1O (stereo not shown) [Compound 7]
output: > 10000 nM

----------
Target: Laforin (Homo sapiens (Human), UniProt O95278)
Sequence (O95278 whole entry, species assumed): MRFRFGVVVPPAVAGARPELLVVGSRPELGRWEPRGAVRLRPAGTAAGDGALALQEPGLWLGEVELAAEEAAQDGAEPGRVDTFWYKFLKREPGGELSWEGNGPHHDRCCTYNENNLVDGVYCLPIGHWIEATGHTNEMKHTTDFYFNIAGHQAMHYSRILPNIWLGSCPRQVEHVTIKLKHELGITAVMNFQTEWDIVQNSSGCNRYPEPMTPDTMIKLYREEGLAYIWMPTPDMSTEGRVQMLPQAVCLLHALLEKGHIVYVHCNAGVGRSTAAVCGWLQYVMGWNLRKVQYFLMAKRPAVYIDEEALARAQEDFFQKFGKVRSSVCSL
Assay: pNPP hydrolysis enzyme assay, Laforin
Assay type: biochemical
EXPERIMENTAL_READOUT: IC50

input: State the recorded IC50 for this entry: COc1cc(CC(=O)NCC(NC(=O)C(CCCNC(=O)c2cccc(I)c2)NC(=O)C(Cc2ccc(C(F)(F)P(=O)(O)O)cc2)NC(=O)c2ccc(C)c(Br)c2)C(N)=O)ccc1O (stereo not shown)
output: > 10000 nM

----------
Target: VHX (Homo sapiens (Human), UniProt Q9NRW4)
Sequence (Q9NRW4 whole entry): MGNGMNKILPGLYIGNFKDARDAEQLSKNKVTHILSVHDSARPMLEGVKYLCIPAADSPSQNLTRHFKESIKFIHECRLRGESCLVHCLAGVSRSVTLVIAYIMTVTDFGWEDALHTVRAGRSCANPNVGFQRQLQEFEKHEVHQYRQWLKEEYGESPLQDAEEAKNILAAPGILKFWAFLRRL
Test: pNPP hydrolysis enzyme assay, VHX
Type: biochemical
EXPERIMENTAL_READOUT: IC50

input: Under VHX (Homo sapiens (Human), UniProt Q9NRW4): IC50 value of COc1cc(CC(=O)NCC(NC(=O)C(CCCNC(=O)c2cccc(I)c2)NC(=O)C(Cc2ccc(C(F)(F)P(=O)(O)O)cc2)NC(=O)c2ccc(C)c(Br)c2)C(N)=O)ccc1O (stereo not shown) ?
output: > 10000 nM

----------
Molecular target: TC-PTP (Homo sapiens (Human))
Experiment: pNPP hydrolysis enzyme assay, TC-PTP
Format: biochemical
Settings: pNPP substrate; read-out: IC50 (nM) TC-PTP
EXPERIMENTAL_READOUT: IC50 (nM)
The answer is to be given in nM; state only the numeric part.

input: Requested field: IC50. Item: COc1cc(CC(=O)NCC(NC(=O)C(CCCNC(=O)c2cccc(I)c2)NC(=O)C(Cc2ccc(C(F)(F)P(=O)(O)O)cc2)NC(=O)c2ccc(C)c(Br)c2)C(N)=O)ccc1O (stereo not shown)
output: 830

----------
Target: UniProtKB P08575
Assay: pNPP hydrolysis enzyme assay, CD45
Assay type: biochemical
EXPERIMENTAL_READOUT: IC50

input: // IC50 lookup, key: COc1cc(CC(=O)NCC(NC(=O)C(CCCNC(=O)c2cccc(I)c2)NC(=O)C(Cc2ccc(C(F)(F)P(=O)(O)O)cc2)NC(=O)c2ccc(C)c(Br)c2)C(N)=O)ccc1O (stereo not shown)
output: > 10000 nM

----------
Target: UniProt Q9Y2R2
Sequence (Q9Y2R2 whole entry, species assumed): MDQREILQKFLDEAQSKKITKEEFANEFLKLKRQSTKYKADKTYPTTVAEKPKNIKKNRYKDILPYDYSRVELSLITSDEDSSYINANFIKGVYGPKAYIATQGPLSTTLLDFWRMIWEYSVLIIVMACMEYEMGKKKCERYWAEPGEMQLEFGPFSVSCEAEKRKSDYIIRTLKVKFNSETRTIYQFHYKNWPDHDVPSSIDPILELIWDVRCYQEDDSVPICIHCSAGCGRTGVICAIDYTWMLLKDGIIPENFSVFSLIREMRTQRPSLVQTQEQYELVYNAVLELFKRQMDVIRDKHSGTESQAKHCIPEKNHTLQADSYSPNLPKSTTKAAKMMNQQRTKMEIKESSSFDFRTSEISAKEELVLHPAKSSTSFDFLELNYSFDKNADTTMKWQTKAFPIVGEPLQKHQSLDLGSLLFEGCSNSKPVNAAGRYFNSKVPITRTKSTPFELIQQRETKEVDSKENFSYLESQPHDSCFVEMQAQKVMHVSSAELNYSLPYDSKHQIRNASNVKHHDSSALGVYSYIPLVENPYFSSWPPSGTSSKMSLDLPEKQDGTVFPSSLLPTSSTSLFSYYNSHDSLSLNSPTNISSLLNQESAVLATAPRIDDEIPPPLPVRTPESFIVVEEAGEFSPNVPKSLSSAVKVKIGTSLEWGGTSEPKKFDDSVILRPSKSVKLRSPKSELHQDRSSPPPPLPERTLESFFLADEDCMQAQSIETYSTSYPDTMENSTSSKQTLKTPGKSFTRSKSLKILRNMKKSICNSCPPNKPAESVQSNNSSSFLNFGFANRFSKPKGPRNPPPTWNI
Test: pNPP hydrolysis enzyme assay, LYP
Assay type: biochemical
Experimental: Enzyme kinetic assay. PTP activity was assayed using p-nitrophenyl phosphate (pNPP) as a substrate in 3,3-dimethylglutarate buffer (50 mM 3,3-dimethylglutarate, pH 7.0, 1 mM EDTA, 150 mM NaCl, 2 mM DTT, 0.1 mg/mL BSA) at 25° C. The assays were performed in 96-well plates. […] The reaction rate was measured using a SpectraMax Plus 384 Microplate Spectrophotometer (Molecular Devices). […]
EXPERIMENTAL_READOUT: IC50

input: Lab request: please report IC50 under test system UniProt Q9Y2R2 for COc1cc(CC(=O)NCC(NC(=O)C(CCCNC(=O)c2cccc(I)c2)NC(=O)C(Cc2ccc(C(F)(F)P(=O)(O)O)cc2)NC(=O)c2ccc(C)c(Br)c2)C(N)=O)ccc1O (stereo not shown)
output: > 10000 nM

----------
Assay: Pharmacokinetics in mouse plasma
Format: in vivo
Settings: plasma; mouse, 5 mg/Kg intravenous injection; read-out: Vdss
EXPERIMENTAL_READOUT: Vd (L)
Your answer is read as L, so omit the unit and give the number.

input: Entry COc1cc(CC(=O)NCC(NC(=O)C(CCCNC(=O)c2cccc(I)c2)NC(=O)C(Cc2ccc(C(F)(F)P(=O)(O)O)cc2)NC(=O)c2ccc(C)c(Br)c2)C(N)=O)ccc1O (stereo not shown) has what Vd?
output: 0.007

----------
Target: PTPε (Homo sapiens (Human), UniProt P23469)
Sequence (P23469 20-700): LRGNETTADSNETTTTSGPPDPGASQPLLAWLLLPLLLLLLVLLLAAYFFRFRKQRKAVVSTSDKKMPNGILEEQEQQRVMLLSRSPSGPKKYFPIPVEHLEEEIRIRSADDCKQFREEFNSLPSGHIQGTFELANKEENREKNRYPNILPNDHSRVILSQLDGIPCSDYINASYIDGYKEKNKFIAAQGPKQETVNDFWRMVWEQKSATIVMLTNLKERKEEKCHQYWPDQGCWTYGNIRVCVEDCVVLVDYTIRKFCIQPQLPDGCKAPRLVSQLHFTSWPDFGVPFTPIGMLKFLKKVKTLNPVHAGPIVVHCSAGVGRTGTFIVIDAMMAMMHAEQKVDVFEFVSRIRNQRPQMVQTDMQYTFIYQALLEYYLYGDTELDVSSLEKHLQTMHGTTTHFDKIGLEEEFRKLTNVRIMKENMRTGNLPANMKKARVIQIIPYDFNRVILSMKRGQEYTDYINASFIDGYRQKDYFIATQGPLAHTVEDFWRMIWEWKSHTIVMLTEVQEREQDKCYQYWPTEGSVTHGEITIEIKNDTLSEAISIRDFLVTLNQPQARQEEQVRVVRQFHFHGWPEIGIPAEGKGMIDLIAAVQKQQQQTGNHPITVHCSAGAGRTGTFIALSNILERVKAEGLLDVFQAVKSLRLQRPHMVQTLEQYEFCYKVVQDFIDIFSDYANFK
Experiment: pNPP hydrolysis enzyme assay, PTPε
Assay type: biochemical
Experimental: Enzyme kinetic assay. PTP activity was assayed using p-nitrophenyl phosphate (pNPP) as a substrate in 3,3-dimethylglutarate buffer (50 mM 3,3-dimethylglutarate, pH 7.0, 1 mM EDTA, 150 mM NaCl, 2 mM DTT, 0.1 mg/mL BSA) at 25° C. The assays were performed in 96-well plates. […] The reaction rate was measured using a SpectraMax Plus 384 Microplate Spectrophotometer (Molecular Devices). […]
EXPERIMENTAL_READOUT: IC50

input: Need IC50, item COc1cc(CC(=O)NCC(NC(=O)C(CCCNC(=O)c2cccc(I)c2)NC(=O)C(Cc2ccc(C(F)(F)P(=O)(O)O)cc2)NC(=O)c2ccc(C)c(Br)c2)C(N)=O)ccc1O (stereo not shown)
output: > 10000 nM

----------
Experiment: Pharmacokinetics in mouse plasma
Format: in vivo
Conditions: mouse plasma, 5 mg/Kg intravenous injection, extrapolated to zero time
EXPERIMENTAL_READOUT: Cmax
Write the quantity with the unit trailing the number.

input: # lookup: Cmax of COc1cc(CC(=O)NCC(NC(=O)C(CCCNC(=O)c2cccc(I)c2)NC(=O)C(Cc2ccc(C(F)(F)P(=O)(O)O)cc2)NC(=O)c2ccc(C)c(Br)c2)C(N)=O)ccc1O (stereo not shown) [Compound 7]
output: 25.7 µM

----------
Target: PTPμ (Homo sapiens (Human), UniProt P28827)
Experiment: pNPP hydrolysis enzyme assay, PTPμ
Format: biochemical
EXPERIMENTAL_READOUT: IC50

input: Give PTPμ (Homo sapiens (Human), UniProt P28827) IC50 for COc1cc(CC(=O)NCC(NC(=O)C(CCCNC(=O)c2cccc(I)c2)NC(=O)C(Cc2ccc(C(F)(F)P(=O)(O)O)cc2)NC(=O)c2ccc(C)c(Br)c2)C(N)=O)ccc1O (stereo not shown)
output: > 10000 nM

----------
Biological target: PTP-MEG2 (Homo sapiens (Human), UniProt P43378)
Sequence (P43378 277-582): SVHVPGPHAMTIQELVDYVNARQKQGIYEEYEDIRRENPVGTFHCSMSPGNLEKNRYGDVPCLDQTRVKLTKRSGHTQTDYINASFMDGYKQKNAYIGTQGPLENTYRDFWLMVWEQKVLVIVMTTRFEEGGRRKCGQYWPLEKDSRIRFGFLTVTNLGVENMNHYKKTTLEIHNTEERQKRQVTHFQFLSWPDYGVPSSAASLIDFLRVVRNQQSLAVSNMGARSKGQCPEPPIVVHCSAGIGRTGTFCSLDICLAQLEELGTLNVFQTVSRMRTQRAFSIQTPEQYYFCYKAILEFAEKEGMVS
EXPERIMENTAL_READOUT: pKi
# pKi is unitless: minus log10 of the molar concentration; print number only

input: What does the record list as pKi for COc1cc(CC(=O)NCC(NC(=O)C(CCCNC(=O)c2cccc(I)c2)NC(=O)C(Cc2ccc(C(F)(F)P(=O)(O)O)cc2)NC(=O)c2ccc(C)c(Br)c2)C(N)=O)ccc1O (stereo not shown) [Compound 7] ?
output: 7.47

----------
Biological target: DEP1 (Homo sapiens (Human), UniProt Q12913)
Sequence (Q12913 36-1337, species assumed): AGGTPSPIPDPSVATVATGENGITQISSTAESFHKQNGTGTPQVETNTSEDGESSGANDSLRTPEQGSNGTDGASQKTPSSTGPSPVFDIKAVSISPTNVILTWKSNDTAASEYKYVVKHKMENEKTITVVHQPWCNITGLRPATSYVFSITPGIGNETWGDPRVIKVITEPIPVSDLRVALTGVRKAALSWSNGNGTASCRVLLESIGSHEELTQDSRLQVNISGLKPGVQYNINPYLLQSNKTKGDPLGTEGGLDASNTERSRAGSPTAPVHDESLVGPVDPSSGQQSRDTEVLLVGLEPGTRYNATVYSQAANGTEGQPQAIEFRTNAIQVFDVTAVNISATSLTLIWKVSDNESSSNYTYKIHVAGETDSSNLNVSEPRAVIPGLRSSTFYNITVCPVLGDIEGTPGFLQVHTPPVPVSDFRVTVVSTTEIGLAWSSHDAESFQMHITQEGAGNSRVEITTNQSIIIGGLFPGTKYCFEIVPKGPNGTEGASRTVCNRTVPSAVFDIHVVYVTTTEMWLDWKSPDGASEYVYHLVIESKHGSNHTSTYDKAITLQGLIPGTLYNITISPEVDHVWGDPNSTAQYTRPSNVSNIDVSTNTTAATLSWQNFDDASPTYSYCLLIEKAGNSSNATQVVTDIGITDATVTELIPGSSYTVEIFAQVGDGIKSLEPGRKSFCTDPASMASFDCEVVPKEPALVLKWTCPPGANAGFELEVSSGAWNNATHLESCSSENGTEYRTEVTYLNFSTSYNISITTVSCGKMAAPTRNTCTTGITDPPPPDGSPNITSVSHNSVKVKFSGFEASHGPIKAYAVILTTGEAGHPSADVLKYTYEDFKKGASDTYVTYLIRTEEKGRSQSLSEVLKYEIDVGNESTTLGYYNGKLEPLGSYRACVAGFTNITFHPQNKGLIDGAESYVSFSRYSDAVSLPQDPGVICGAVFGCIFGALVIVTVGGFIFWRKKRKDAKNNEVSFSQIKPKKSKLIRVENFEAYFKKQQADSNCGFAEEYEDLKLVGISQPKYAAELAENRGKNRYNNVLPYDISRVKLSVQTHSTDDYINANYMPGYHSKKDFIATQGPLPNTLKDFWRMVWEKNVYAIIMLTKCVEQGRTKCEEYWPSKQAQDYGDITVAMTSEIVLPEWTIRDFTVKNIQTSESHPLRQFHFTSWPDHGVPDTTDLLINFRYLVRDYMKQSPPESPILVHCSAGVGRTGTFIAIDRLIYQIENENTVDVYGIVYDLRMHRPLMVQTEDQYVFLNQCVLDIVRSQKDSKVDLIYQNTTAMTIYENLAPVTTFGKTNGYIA
Test: pNPP hydrolysis enzyme assay, DEP1
Type: biochemical
Protocol: Enzyme kinetic assay. PTP activity was assayed using p-nitrophenyl phosphate (pNPP) as a substrate in 3,3-dimethylglutarate buffer (50 mM 3,3-dimethylglutarate, pH 7.0, 1 mM EDTA, 150 mM NaCl, 2 mM DTT, 0.1 mg/mL BSA) at 25° C. The assays were performed in 96-well plates. […] The reaction rate was measured using a SpectraMax Plus 384 Microplate Spectrophotometer (Molecular Devices). […]
EXPERIMENTAL_READOUT: IC50

input: Request the reported IC50 associated with COc1cc(CC(=O)NCC(NC(=O)C(CCCNC(=O)c2cccc(I)c2)NC(=O)C(Cc2ccc(C(F)(F)P(=O)(O)O)cc2)NC(=O)c2ccc(C)c(Br)c2)C(N)=O)ccc1O (stereo not shown) [Compound 7]
output: > 10000 nM
